- protocol.summary: Dissociation constant, pKa of the compound
- Format: physicochemical
As shown below, each of these molecules has a reported pKa value.
The answer should be a number; do not append a unit.

{"smiles.input": "NC1=NC(c2ccccc2)(c2ccccc2)C2=NCCCN12", "pKa": 7.6}

Switching to the query record.
Query: Which pKa value is on record for CN1C(=O)C(c2ccccc2)(c2ccccc2)N=C1N ?
Reply: 5.7

----------
Quick note: these are IC50 numbers for system: Beta-secretase 1 (Homo sapiens)
Sequence (P56817 whole entry): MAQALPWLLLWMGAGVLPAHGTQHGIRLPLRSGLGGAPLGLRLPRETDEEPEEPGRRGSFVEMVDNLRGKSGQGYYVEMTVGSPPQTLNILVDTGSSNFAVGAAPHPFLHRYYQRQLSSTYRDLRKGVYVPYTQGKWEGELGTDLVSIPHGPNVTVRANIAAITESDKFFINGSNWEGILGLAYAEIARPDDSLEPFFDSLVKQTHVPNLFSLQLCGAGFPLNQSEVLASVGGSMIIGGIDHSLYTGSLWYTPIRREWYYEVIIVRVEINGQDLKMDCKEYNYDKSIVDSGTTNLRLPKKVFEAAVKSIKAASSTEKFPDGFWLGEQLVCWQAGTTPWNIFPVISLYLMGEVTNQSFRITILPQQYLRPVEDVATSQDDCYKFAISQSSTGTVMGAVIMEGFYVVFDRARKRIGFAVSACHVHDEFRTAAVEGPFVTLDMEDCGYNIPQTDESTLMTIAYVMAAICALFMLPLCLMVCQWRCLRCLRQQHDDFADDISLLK
// return numeric value only (unit: nM, not printed)

As a guide, the following entries are already answered.
{"compound": "CN1C(=O)C(c2ccccc2)(c2ccc(Cl)cc2)N=C1N (stereo not drawn)", "IC50 [nM]": 2250}
{"compound": "COc1ccc(C2(c3ccccc3)N=C(N)N(C)C2=O)cc1 (stereo not drawn)", "IC50 [nM]": 3100}
{"compound": "CCCOc1cc(C2(c3cccc(-c4cccnc4)c3)N=C(N)N(C)C2=O)ccc1OC (stereo not drawn)", "IC50 [nM]": 50}
{"compound": "CCOc1cc(C2(c3cccc(-c4cccnc4)c3)N=C(N)N(C)C2=O)ccc1OC (stereo not drawn)", "IC50 [nM]": 50}
{"compound": "COc1ncccc1-c1cccc(C2(c3ccc(OC(F)(F)F)cc3)N=C(N)N(C)C2=O)c1 (stereo not drawn)", "IC50 [nM]": 520}
{"compound": "CCc1cc(C2(C34CC5CC(CC(C5)C3)C4)N=C(N)N(C)C2=O)ccc1OC (stereo not drawn)", "IC50 [nM]": 280}
{"compound": "COc1ccc(C2(c3ccc(C#N)c(-c4cccnc4)c3)N=C(N)N(C)C2=O)cc1C (stereo not drawn)", "IC50 [nM]": 630}

# ---- query compound ----
Query: Name the recorded IC50 for COc1ccc(C2(c3cccc(-c4cccnc4)c3)N=C(N)N(C)C2=O)cc1F (stereo not drawn) .
Reply: 50

----------
- tested.on: UniProt P56817
- protocol.summary: Inhibition of BACE1 expressed in CHOK1 cells coexpressing human recombinant wild type APP assessed as blockade of amyloid beta production by ELISA
experimental.readout: pEC50
Remember the convention: pEC50 equals -log10 of concentration in molar.

# annotated cases, reported pEC50 shown
{"compound": "NC1=NC(c2ccccc2)(c2ccccc2)C(=O)N1", "tested.on": "UniProt P56817", "pEC50": 4.63}
{"compound": "COc1ccc(C2(C34CC5CC(CC(C5)C3)C4)N=C(N)N(C)C2=O)cc1OC (stereo not drawn)", "tested.on": "UniProt P56817", "pEC50": 6.72}
{"compound": "COc1ccc(C2(c3cccc(-c4cccnc4)c3)N=C(N)N(C)C2=O)cc1OC(C)C (stereo not drawn)", "tested.on": "UniProt P56817", "pEC50": 6.06}
{"compound": "COc1ccc(C2(c3ccccc3)N=C(N)N(C)C2=O)cc1 (stereo not drawn)", "tested.on": "UniProt P56817", "pEC50": 5.47}
{"compound": "CN1C(=O)C(c2ccccc2)(c2cccc(Cl)c2)N=C1N (stereo not drawn)", "tested.on": "UniProt P56817", "pEC50": 5.16}
{"compound": "COc1ccc(C2(c3cccc(-c4cccnc4)c3)N=C(N)N(C)C2=O)cc1C#N (stereo not drawn)", "tested.on": "UniProt P56817", "pEC50": 5.35}

Query: Value lookup for pEC50; key = CN1C(=O)C(c2ccccc2)(c2ccc(Cl)cc2)N=C1N (stereo not drawn)
Reply: 5.67

Query: Follow-up item: COc1ccc(C2(c3ccc(C#N)c(-c4cccnc4)c3)N=C(N)N(C)C2=O)cc1C (stereo not drawn)
Reply: 5.76

Query: Another compound to check: CCCCOc1cc(C2(c3cccc(-c4cccnc4)c3)N=C(N)N(C)C2=O)ccc1OC (stereo not drawn)
Reply: 6.17

Query: Same again, this time with CCOc1cc(C2(c3cccc(-c4cccnc4)c3)N=C(N)N(C)C2=O)ccc1OC (stereo not drawn)
Reply: 6.28

Query: Query COc1ccc(C2(c3cccc(-c4cccnc4)c3)N=C(N)N(C)C2=O)cc1F (stereo not drawn) next
Reply: 6.38

Query: Do the same for COc1cccc(C2(c3ccccc3)N=C(N)N(C)C2=O)c1 (stereo not drawn) please
Reply: 5.23

----------
List of pIC50 tested on Cathepsin D (Homo sapiens, UniProt P07339).
Sequence (P07339 65-162 limits assumed): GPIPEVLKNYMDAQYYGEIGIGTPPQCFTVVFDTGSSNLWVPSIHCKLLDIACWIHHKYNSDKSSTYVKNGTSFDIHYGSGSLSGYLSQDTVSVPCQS
Sequence (P07339 169-412 limits assumed): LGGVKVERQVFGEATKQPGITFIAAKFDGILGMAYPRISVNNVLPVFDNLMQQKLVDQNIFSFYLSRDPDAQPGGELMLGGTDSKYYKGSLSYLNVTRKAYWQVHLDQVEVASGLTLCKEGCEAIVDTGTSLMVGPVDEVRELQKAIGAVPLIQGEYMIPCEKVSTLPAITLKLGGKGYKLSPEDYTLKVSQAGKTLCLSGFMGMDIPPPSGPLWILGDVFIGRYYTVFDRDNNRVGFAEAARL
Note: pIC50 values are expressed as the negative base-10 logarithm of concentration in M.

{"compound": "CN1C(=O)C(c2cccc(-c3cccnc3)c2)(c2ccc3c(c2)OCO3)N=C1N (centres undefined)", "pIC50": 4.67}

Query: # input compound: CN1C(=O)[C@](c2ccc(OC(F)(F)F)cc2)(c2ccc(F)c(-c3cncnc3)c2)N=C1N ; wanted: its pIC50
Reply: 4.94

Query: Cool, now COc1ccc([C@]2(C34CC5CC(CC(C5)C3)C4)N=C(N)N(C)C2=O)cc1C
Reply: 5.04

Query: Consider next the compound CN1C(=O)[C@@](c2ccc(OC(F)(F)F)cc2)(c2ccc(F)c(-c3cncnc3)c2)N=C1N in the same way.
Reply: 5.63

Query: Cool, now COc1ccc(C2(c3cccc(-c4cccnc4)c3)N=C(N)N(C)C2=O)cc1C#N (centres undefined)
Reply: 5.14

Query: Try this compound too: CCOc1ccc(C2(C34CC5CC(CC(C5)C3)C4)N=C(N)N(C)C2=O)cc1 (centres undefined)
Reply: 4.94

Query: Note, next up: CN1C(=O)C(c2cccc(-c3cccnc3)c2)(c2ccc3c(c2)CCO3)N=C1N (centres undefined)
Reply: 4.62

Query: What would you report for COc1ncccc1-c1cccc(C2(c3ccc(OC(F)(F)F)cc3)N=C(N)N(C)C2=O)c1 (centres undefined) ?
Reply: 5.69

Query: Same read-out for COc1ccc([C@@]2(c3ccc(F)c(-c4cccnc4F)c3)N=C(N)N(C)C2=O)cc1C ?
Reply: 6.09

----------
Below, each of the compounds is paired with its reported inhibition value.
- tested.on: Cathepsin D (Homo sapiens)
- protocol.summary: Inhibition of human cathepsin D at 100 uM by FRET based peptide cleavage assay
Response body: numeric value in %, unit text excluded.

Consider the reported inhibition for these compounds:
{"compound": "COc1ccc(C2(c3ccccc3)N=C(N)N(C)C2=O)cc1 (stereo not given)", "inhibition, %": 3}
{"compound": "CN1C(=O)C(c2ccccc2)(c2ccccc2)N=C1N", "inhibition, %": 36}
{"compound": "COc1cccc(C2(c3ccccc3)N=C(N)N(C)C2=O)c1 (stereo not given)", "inhibition, %": 46}
{"compound": "CCN1C(=O)C(c2ccccc2)(c2ccccc2)N=C1N", "inhibition, %": 33}

Moving on to the next compound.
Query: Please look up its inhibition: NC1=NC(c2ccccc2)(c2ccccc2)C(=O)N1
Reply: 13

----------
Here's a batch of molecules along with measured log10 of IC50 for Beta-secretase 2 (Homo sapiens).
# values: log10(IC50), units µM

Look over these answered cases.
{"molecule": "CCOc1ccc(C2(C34CC5CC(CC(C5)C3)C4)N=C(N)N(C)C2=O)cc1 (stereo not drawn)", "log10 of IC50": 0.40}
{"molecule": "COc1ccc(C2(c3cccc(-c4cncnc4)c3)N=C(N)N(C)C2=O)cc1C (stereo not drawn)", "log10 of IC50": 0.20}

Query: Please state recorded log10 of IC50 (tested on Beta-secretase 2 (Homo sapiens)) of CN1C(=O)C(c2ccc(OC(F)(F)F)cc2)(c2cc(F)cc(-c3cncnc3)c2)N=C1N (stereo not drawn)
Sequence (Q9Y5Z0 whole entry): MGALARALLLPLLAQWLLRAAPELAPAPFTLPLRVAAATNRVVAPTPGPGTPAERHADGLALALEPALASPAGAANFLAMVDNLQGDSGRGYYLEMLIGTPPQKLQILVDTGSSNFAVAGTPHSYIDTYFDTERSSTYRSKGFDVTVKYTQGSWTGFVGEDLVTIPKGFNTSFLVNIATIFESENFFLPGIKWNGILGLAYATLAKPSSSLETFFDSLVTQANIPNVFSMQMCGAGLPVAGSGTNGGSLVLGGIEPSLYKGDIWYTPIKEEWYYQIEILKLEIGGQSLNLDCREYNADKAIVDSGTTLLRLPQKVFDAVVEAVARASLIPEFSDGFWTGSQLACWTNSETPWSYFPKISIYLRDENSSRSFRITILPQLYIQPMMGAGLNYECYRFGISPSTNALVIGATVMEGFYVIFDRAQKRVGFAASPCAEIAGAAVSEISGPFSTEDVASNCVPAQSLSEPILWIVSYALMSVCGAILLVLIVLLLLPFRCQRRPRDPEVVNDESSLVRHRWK
Reply: 0.10

Query: Entry CN1C(=O)C(c2cccc(-c3cccnc3)c2)(c2ccc3c(c2)CCO3)N=C1N (stereo not drawn) please
Reply: 0.05

Query: COc1ccc(C2(C34CC5CC(CC(C5)C3)C4)N=C(N)N(C)C2=O)cc1 (stereo not drawn) ?
Reply: -0.17

Query: Record: NC1=NC(c2ccccc2)(c2ccccc2)C(=O)N1
Reply: 1.94

Query: Then what about the molecule CN1C(=O)C(c2ccc(OC(F)(F)F)cc2)(c2ccc(F)c(-c3cncnc3)c2)N=C1N (stereo not drawn) ?
Reply: 0.99

Query: Now consider COc1ccc(C2(c3ccc(F)c(-c4cccnc4F)c3)N=C(N)N(C)C2=O)cc1C (stereo not drawn) .
Reply: 0.26

Query: Same question, CN1C(=O)C(c2ccc(OC(F)(F)F)cc2)(c2cccc(-c3cncnc3)c2F)N=C1N (stereo not drawn) this time
Reply: 0.70

Query: Try this molecule too: COc1ccc([C@]2(C34CC5CC(CC(C5)C3)C4)N=C(N)N(C)C2=O)cc1C
Reply: 0.60

Query: Try the molecule COc1ccc(C2(c3cccc(-c4cccnc4)c3)N=C(N)N(C)C2=O)cc1C(F)(F)F (stereo not drawn)
Reply: 0.00

Query: Also need COc1ccc([C@@]2(c3ccc(F)c(-c4cccnc4F)c3)N=C(N)N(C)C2=O)cc1C , thanks.
Reply: -0.09

Query: Same question for COc1ccc(C2(c3ccc(F)c(-c4cncnc4)c3)N=C(N)N(C)C2=O)cc1C (stereo not drawn) please.
Reply: 0.45

Query: Try the molecule COc1ccc([C@]2(c3ccc(F)c(-c4cccnc4F)c3)N=C(N)N(C)C2=O)cc1C
Reply: 0.21

Query: Note, next up: COc1ccc(C2(c3cccc(-c4cccnc4)c3)N=C(N)N(C)C2=O)cc1F (stereo not drawn)
Reply: -0.28

Query: // repeat for COc1ccc([C@@]2(C34CC5CC(CC(C5)C3)C4)N=C(N)N(C)C2=O)cc1C and report
Reply: 1.87

Query: What do you have for COc1ccc(C2(c3cccc(-c4cccnc4)c3)N=C(N)N(C)C2=O)cc1OC(C)C (stereo not drawn) ?
Reply: 0.26
